- assayTarget: human PAI-1 (Homo sapiens)
- Sequence (P05121 24-402): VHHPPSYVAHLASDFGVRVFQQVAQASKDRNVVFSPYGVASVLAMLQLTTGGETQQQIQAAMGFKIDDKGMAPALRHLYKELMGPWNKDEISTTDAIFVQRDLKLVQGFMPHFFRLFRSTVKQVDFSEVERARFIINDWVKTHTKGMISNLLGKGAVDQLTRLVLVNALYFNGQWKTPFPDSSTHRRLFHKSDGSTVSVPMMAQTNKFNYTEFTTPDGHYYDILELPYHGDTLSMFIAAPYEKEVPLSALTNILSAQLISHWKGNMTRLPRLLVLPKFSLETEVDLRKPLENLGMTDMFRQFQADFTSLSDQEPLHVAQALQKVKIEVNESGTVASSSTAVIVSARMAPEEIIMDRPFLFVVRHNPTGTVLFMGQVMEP
- measurementDescription: Measurement of PAI-1 inhibitory activity of compound group 2 (t-PA, S-2288 chromogenic substrate)
- experimentalSetup: compound 20 μM; PAI-1 activity of the system without compound after 30 minutes taken as 100%
reportedProperty: PAI-1 activity % (%)

chemicalStructure: O=C(COc1ccc(-c2ccccc2)cc1)Nc1ccc(-c2ccoc2)cc1C(=O)O
assayTarget: human PAI-1 (Homo sapiens)
reportedProperty: PAI-1 activity %
measureUnit: %
dataValue: 85.4
--
chemicalStructure: O=C(Nc1ccc(Cl)cc1C(=O)[O-])c1ccc(-c2cccc3cccnc23)cc1.[Na+]
assayTarget: human PAI-1 (Homo sapiens)
reportedProperty: PAI-1 activity %
measureUnit: %
dataValue: 99.8
--
chemicalStructure: O=C(Nc1ccc(Cl)cc1C(=O)[O-])c1cccc(-c2cnc3ccccc3c2)c1.[Na+]
assayTarget: human PAI-1 (Homo sapiens)
reportedProperty: PAI-1 activity %
measureUnit: %
dataValue: 78.2

Just for reference, patent US10092537B2 is where these values come from.
